The reported measurements were obtained from paper PMC5540273.

test system: INSRR; details: concentration: 1 μM,replicates: in singlicate; n = 1
Quick reference: %Inh of the listed items.
The response must be a number in % with no trailing unit.

>  <compound>
N#Cc1cccc(C(=O)NC2CCN(c3ccnc(Nc4ccc(F)cc4)n3)C2)c1 (centres unmarked) [GSK1379708]

>  <target_entity>
INSRR

>  <%Inh [%]>
0

$$$$
>  <compound>
CN(c1cccc(CNc2nc(Nc3ccc4c(c3)CC(=O)N4)ncc2C(F)(F)F)c1)S(C)(=O)=O

>  <target_entity>
INSRR

>  <%Inh [%]>
21

$$$$
>  <compound>
Cn1ccc2ncnc(Oc3ccc(NC(=O)Nc4cc(C(C)(C)C)on4)c(Cl)c3)c21

>  <target_entity>
INSRR;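 also: KINOMEscan kinase panel screen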

>  <%Inh [%]>
19

$$$$

Note down %Inh recorded for OCCn1cc(-c2cnc3nnn(Cc4ccc5ncccc5c4)c3n2)cn1 0

Assign %Inh to the following record: COc1cc2nccc(Nc3ccc(Oc4ccccc4)cc3)c2cc1OC.Cl [GI261656] 0

Dear colleague, please send me the reported %Inh for CC(=O)c1c(-c2ccncc2)[nH]c(-c2ccncc2)c1C [GW493036] when you can. 0

Supply recorded %Inh for O=C(NCC1CC1)c1ccc(-c2cc(C(=O)NC3CC3)ccc2F)cc1 [GW810445] here. 0

# return recorded %Inh for entry O=c1[nH]cc(-c2ccc(O)cc2)c2sc(-c3ccncc3)cc12 [GSK1033723] 0

Specify measured %Inh for Cc1ccc(Nc2ccnc(Nc3ccc4c(c3)CS(=O)(=O)C4)n2)cc1O.Cl [GW579362] . 22

Specify %Inh for O=C(Nc1cccc(C(F)(F)F)c1)c1cccc(Oc2ccc3nccn3n2)c1 and stop. 22

For NC(=O)Nc1sc(-c2ccc(F)cc2)cc1C(N)=O [GW789449] , write its %Inh. 10

Indicate the recorded %Inh value for this compound: CC(C)c1nc(-c2cccc(NS(=O)(=O)c3ccccc3)c2)c(-c2ccnc(Nc3ccc4c(c3)CN(C)CC4)n2)s1 [GSK1649598] 0

Report measured %Inh; entry is COC(=O)Nc1nc2cc(Oc3ccc(NC(=O)Nc4cc(C(F)(F)F)ccc4Cl)cc3)ccc2[nH]1.Cl [GW697465] 0

Indicate its recorded %Inh; the compound in question is Cc1cccc(-c2nc(Nc3ccncc3)c3sccc3n2)n1 [GW869641] 5

// fetch %Inh given entry CN(c1ccc2c(c1)nc(NCc1ccc(F)cc1)n2C)c1ccnc(Nc2ccc(CS(C)(=O)=O)cc2)n1.Cl [GW813244] 15

Quick one: give measured %Inh for CC(=O)Nc1nc2cnc(Nc3cc(NC(=O)c4cccc(CC(C)(C)C#N)c4)ccc3C)nc2s1 4

Report %Inh for COc1cccc(CNC(=O)NC2CCN(c3ccnc(Nc4cc(OC)c(OC)c(OC)c4)n3)C2)c1 (centres unmarked) [GSK1379765] 96.4

Recall and state the measured %Inh for CSc1nccc(-c2c(-c3ccc(F)cc3)ncn2CCCN2CCOCC2)n1.Cl [SB-217146] . 0

Return the recorded %Inh value; entry: Nc1nccc(-c2ccc3c(N)n[nH]c3c2)n1 [GSK1034945] 0

# return recorded %Inh for entry C[C@@H](Oc1cc(-n2cnc3ccc(-c4ccncc4)cc32)sc1C(N)=O)c1ccccc1Cl [GSK483724] 0

Return %Inh (reported value) for this compound: COc1cc(Nc2nccc(N3CCC(NC(=O)c4cccc(C#N)c4)C3)n2)cc(OC)c1OC (centres unmarked) [GSK1379751] 0

Give a short answer stating reported %Inh for C[C@@H]1CNc2c(sc3ccc4nc(-c5ccc(O)cc5)ccc4c23)C(=O)N1 . 0

Quickly give me recorded %Inh for COC(=O)c1cccc(NC(=O)NC2CCN(c3ccnc(Nc4cc(OC)c(OC)c(OC)c4)n3)C2)c1 (centres unmarked) [GSK1379767] 0

Tell me measured %Inh for CC(=O)Nc1ccc(-c2cc3ncnc(SCC(=O)O)c3s2)cc1 please. 10

Could you please provide reported %Inh for CCn1c(-c2nonc2N)nc2cncc(Br)c21 [SB-738004] ? Thanks! 0

Supply recorded %Inh for CS(=O)c1ccc(-c2coc3ccc(-c4n[nH]c(=O)o4)cc23)cc1 (centres unmarked) here. 1

Determine from records and report %Inh for CC(C)S(=O)(=O)N1CCN(Cc2ccc3c(c2)nc(NC(=O)c2ccsc2)n3C[C@H](O)c2ccccc2)CC1 [GW635815] 27
